Reference for the values: PubChem BioAssay

Recorded growth inhibition values for a group of molecules are listed next.
EXPERIMENT_NOTES: antimalarial activity against Dd2 strain (AID 2302);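 further: 0% = DMSO untreated growth and 100% = chloroquine plus artemisinin killed control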
RUN_PARAMETERS: P. falciparum Dd2 in RBCs, LDH growth readout, 72 h; at 2 µM; active compounds read high
Activity calls are given as the source filed them.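 How the source made its calls: active means growth inhibition above 50% at the single 2 µM test dose, taken to imply half-maximal potency below 2 µM; inactive means the rest.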
QUANTITY_KIND: growth inhibition

CCCNC(=O)c1ccnc(-c2ccc(CNC3Cc4ccccc4C3)cc2)c1    21% (inactive)
CN(C)c1ccc(CN2CCC(CNC(=O)c3cc(-c4cccc(F)c4)cs3)C2)cc1 (stereo not given)    13% (inactive)
CC(C)(C)c1ccc(NC(=O)c2cccc(CN3CCCN(Cc4cccc(C#N)c4)CC3)c2)cc1    12% (inactive)
O=C(Nc1cccc(CN2CCCN(Cc3ccsc3)CC2)c1)c1ccc(-c2ccccc2)cc1    11% (inactive)
Cc1ccc(C(=O)Nc2ccc(F)c(F)c2F)cc1S(=O)(=O)N1CCCCC1    69% (active)

----------
EXPERIMENT_NOTES: antimalarial activity against Dd2 strain (AID 2302);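 further: 0% = DMSO untreated growth and 100% = chloroquine plus artemisinin killed control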
RUN_PARAMETERS: P. falciparum Dd2 in RBCs, LDH growth readout, 72 h; at 2 µM
Active and inactive are the calls of the source.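 Rule for the calls: active = growth inhibition above 50% at the single 2 µM test dose, taken to imply half-maximal potency below 2 µM; inactive = the rest.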
Possible outcomes: active, inactive

O=C(c1ccc([N+](=O)[O-])o1)N1CCN(c2nc3c(Cl)cccc3s2)CC1    active
O=C([C@@H]1CCCCN1c1ccc([N+](=O)[O-])c2ccccc12)N1CCN(c2ncccn2)CC1    inactive
Cc1cccc2[nH]c(-c3ccc(-c4cccc(CNCCc5ccncc5)c4)cc3)nc12    active
CC1(C(=O)Nc2ccc([N+](=O)[O-])cc2O)CC2c3ccccc3C1c1ccccc12 (stereo not given)    inactive
CC(=O)Nc1ncc(C(=O)Nc2cccc(-c3ccc(-c4nc5ccc(C(F)(F)F)cc5[nH]4)s3)c2)s1    active
COc1ccc2c(NN=Cc3ccc(N(C)C)cc3)ccnc2c1    active
OC1CCN(c2cc(-c3ccccn3)nc(-c3ccccn3)n2)CC1    active
CC(=O)c1c(CC(=O)O)c2ccccc2n1O    inactive
Clc1cccc(Cl)c1CCNCC1CCN(CC2CCCCC2)CC1    active
CN1CCC(NCc2cccc(-c3ccc(S(=O)(=O)NCCc4ccccn4)c(F)c3)c2)CC1    inactive

----------
EXPERIMENT_NOTES: human hepatoma cell viability loss – ATP luminescence, cytotoxicity control for P. falciparum antimalarial project, primary screen (AID 2303);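 further: 0% = DMSO wells and 100% = digitonin-killed cells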
RUN_PARAMETERS: HepG2 viability, 24-48 h, at 10 µM
Activity calls are given as the source filed them.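 How the source made its calls: active means inhibition above 50%; inactive means the rest.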
Possible outcomes: 1 = active, -1 = inactive

COc1ccc(Nc2ncc3c(-c4cccc(NC(=O)c5ccc(N)cc5)c4)c[nH]c3n2)cc1OC    1
CCNc1cc(C(=O)N[C@@H](Cc2ccccc2)[C@H](O)CNCCC(C)c2ccccc2)cc(N2CCCC2=O)c1 (some centres undefined)    -1
CN1CCCN(Cc2ccc(-c3ccc(NS(=O)(=O)c4cccc5cccnc45)cc3)cc2)CC1    -1
COc1ccc(NC(=O)NC2CCN(CCCCCNC(=O)/C=C/c3ccc(Cl)c(Cl)c3)C2)c(OC)c1 (centres undefined)    -1

----------
EXPERIMENT_NOTES: human hepatoma cell viability loss – ATP luminescence, cytotoxicity control for P. falciparum antimalarial project, primary screen (AID 2303);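 further: 0% = DMSO wells and 100% = digitonin-killed cells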
RUN_PARAMETERS: HepG2 viability, 24-48 h, at 10 µM, active compounds read high
Sorting guide: entries reporting inhibition beneath 20% go in the 1.0 pile, the rest go in the 0.0 pile.

Cc1cc(CNCC(CCNc2cc(=O)c3ccccc3[nH]2)NCc2cc(Br)cc(Br)c2)oc1C (centres undefined)    1.0
COc1ccc(CCNCCCCCNCCc2ccc(Cl)cc2)cc1OC    0.0
COc1cccc2cc(C(=O)N[C@@H](CC(C)C)C(=O)N[C@H](/C=N/N3CCCC3=O)Cc3ccccc3)oc12    1.0
Cc1ccccc1C1CCN(C2CCC(NC(=O)/C=C/c3c[nH]c4ccccc34)CC2)CC1 (centres undefined)    0.0
CC(C)CNc1c2c(nc3cnn(-c4c5c(nc6cn[nH]c46)CCCC5)c13)CCCC2    1.0
CC(C)N1CCN(CCCNc2c3ccccc3nc3ccccc23)CC1    0.0
COc1ccc(Nc2nccc(-c3ccc(NC(=O)c4cc5cc(F)ccc5[nH]4)cc3)n2)cc1    0.0
CCN(CC)CCOC(=O)c1ccc(NC(=O)c2cc(-c3ccc(C)cc3)nc3ccccc23)cc1    0.0
CCCCCCCN1CC[C@H](NC(=O)Nc2ccnc3ccc(OC)cc23)[C@H](CO)C1    0.0
